target: Receptor tyrosine-protein kinase erbB-2 (Homo sapiens) (UniProt P04626); assay: reducers of endogenous Her2 protein level, primary screen, SKBR3 breast tumor cells, AlphaScreen, ATP viability (AID 461); settings: 18-24 h, at 10 µM, active compounds read low;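 note: lower value means less Her2 protein in the cells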
Sequence (P04626 whole entry, looked up): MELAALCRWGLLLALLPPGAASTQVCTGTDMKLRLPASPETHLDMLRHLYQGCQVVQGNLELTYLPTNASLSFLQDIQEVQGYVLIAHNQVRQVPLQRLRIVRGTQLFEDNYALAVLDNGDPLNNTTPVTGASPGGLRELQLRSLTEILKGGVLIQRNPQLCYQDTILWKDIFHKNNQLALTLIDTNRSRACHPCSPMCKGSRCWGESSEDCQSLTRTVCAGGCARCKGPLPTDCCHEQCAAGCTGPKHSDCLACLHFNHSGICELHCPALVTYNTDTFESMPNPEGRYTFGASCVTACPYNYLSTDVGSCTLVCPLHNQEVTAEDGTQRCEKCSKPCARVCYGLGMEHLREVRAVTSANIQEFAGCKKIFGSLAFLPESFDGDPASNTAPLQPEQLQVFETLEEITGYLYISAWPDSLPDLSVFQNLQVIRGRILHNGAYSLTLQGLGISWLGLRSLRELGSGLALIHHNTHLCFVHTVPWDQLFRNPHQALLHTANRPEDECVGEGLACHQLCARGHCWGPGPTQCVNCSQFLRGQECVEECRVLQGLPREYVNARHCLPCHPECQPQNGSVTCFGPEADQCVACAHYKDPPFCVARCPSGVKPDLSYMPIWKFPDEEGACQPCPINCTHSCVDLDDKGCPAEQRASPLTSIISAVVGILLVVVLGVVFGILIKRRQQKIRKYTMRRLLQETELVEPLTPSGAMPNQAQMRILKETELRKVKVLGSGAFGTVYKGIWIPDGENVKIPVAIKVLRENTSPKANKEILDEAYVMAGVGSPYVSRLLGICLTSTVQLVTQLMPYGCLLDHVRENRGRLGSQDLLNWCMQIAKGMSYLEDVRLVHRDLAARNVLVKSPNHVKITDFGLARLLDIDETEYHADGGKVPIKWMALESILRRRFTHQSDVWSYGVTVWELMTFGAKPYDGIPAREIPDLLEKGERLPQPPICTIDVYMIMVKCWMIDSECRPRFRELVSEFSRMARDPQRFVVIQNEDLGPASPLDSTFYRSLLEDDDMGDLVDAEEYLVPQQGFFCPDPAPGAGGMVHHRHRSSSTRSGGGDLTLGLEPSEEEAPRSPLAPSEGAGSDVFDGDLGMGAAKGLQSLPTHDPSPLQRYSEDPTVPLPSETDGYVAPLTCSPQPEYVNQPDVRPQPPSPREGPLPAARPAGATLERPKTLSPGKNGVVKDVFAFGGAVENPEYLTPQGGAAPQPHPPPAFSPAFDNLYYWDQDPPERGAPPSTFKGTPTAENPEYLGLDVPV
readout type: Her2 level (%)
Give just the numeric value; % need not be written.

Lab book: Her2 level of Cc1nnc(SCC(=O)N(C(C)C)C(C)C)nc1C noted as 88.5

Value of Her2 level reported for the compound COc1cc(C)c(-c2cc(C(=O)O)c(C)o2)cc1C(C)C is 88

Data point: O=c1c2c(nc3nc(CCc4ccccc4)[nH]n13)CCC2 ; Her2 level = 92
